Test system: SNB-19 CNS
measurementDescription: NCI-60 one-dose screen, 48 h (100 = growth as untreated, 0 = no growth, -100 = all killed)
particulars: 10 µM unless noted
Compounds without any hit were thinned out: in the full panel of roughly 83,000, 20% have a hit.
Labelling: growth reported below 20% becomes T; at or above becomes F.

INSERT INTO assay_data (compound, labelvalue) VALUES
  ('CC(/C=C1\SC(=S)N(CC(=O)NC(Cc2c[nH]c3ccccc23)C(=O)O)C1=O)=C\c1ccccc1 (stereo not given)', 'F'),
  ('N#Cc1nc(-c2ccc(F)cc2)oc1S(=O)(=O)N1CCN(c2ccc(F)cc2)CC1', 'F'),
  ('COc1ccc(-c2oc(=O)ccc2-c2cc(OC)c(OC)c(OC)c2)cc1O', 'F'),
  ('O=P(O)(O)OCC1OC(n2cnc3c(NCc4ccccc4)ncnc32)C(O)C1O (stereo not given)', 'F'),
  ('COc1ccc(-c2ccc(=O)oc2C#Cc2cc(OC)c(OC)c(OC)c2)cc1O', 'T');

* * *

Tested on: M14 melanoma
measurementDescription: NCI-60 one-dose screen, 48 h
particulars: 10 µM unless noted
The panel holds about 83,000 compounds, 20% with a hit somewhere; the sample as a whole holds those more often. Calls of active or inactive are those of the source. Rule for the calls: active = growth percent below 10; inactive = the rest.
Possible outcomes: active, inactive

INSERT INTO measurements (compound, labelvalue) VALUES
  ('N#Cc1nc(-c2ccc(F)cc2)oc1S(=O)(=O)N1CCN(c2ccc(F)cc2)CC1', 'inactive'),
  ('C[C@@H]1CC[C@@]2(OC1)O[C@H]1C[C@H]3[C@@H]4CC=C5C[C@@H](O[C@@H]6O[C@H](CO)[C@@H](O[C@@H]7O[C@@H](CO)[C@H](O)[C@H]7O)[C@H](O)[C@H]6O[C@@H]6O[C@@H](C)[C@H](O)[C@@H](O)[C@H]6O)CC[C@]5(C)[C@H]4CC[C@]3(C)[C@H]1[C@@H]2C', 'active'),
  ('C=CC(C)(O)CC/C=C(\CO)C(=O)OC1C(C)OC(O[C@](C)(C=C)CC/C=C(\CO)C(=O)O[C@H]2C[C@@]3(C(=O)OC4OC(CO)C(O)C(O)C4OC4OC(C)C(OC5OC(CO)C(O)C5O)C(OC5OC(CO)C(O)C(O)C5O)C4O)C(CC2(C)C)C2=CCC4[C@@]5(C)CC[C@H](OC6OC(COC7OC(C)C(O)C(O)C7OC7OCC(O)C(O)C7O)C(O)C(O)C6NC(C)=O)C(C)(C)C5CC[C@@]4(C)[C@]2(C)C[C@H]3O)C(O)C1O (stereo not given in full)', 'active'),
  ('COc1cc(-c2nc(SCCC(C)C)nc(N3CCOCC3)c2C#N)cc(OC)c1OC', 'inactive'),
  ('COc1ccc(C2=NN(C(=O)c3cc(OC)c(OC)c(OC)c3)C(c3ccc(N(C)C)cc3)C2)cc1 (stereo not given)', 'active');

* * *

Tested on: RXF 393 renal
measurementDescription: NCI-60 one-dose screen, 48 h
particulars: 10 µM unless noted
Compounds without any hit were thinned out: in the full panel of roughly 83,000, 20% have a hit. Calls of active or inactive are those of the source. The calls were made as follows: active = growth percent below 10; inactive = the rest.
Possible outcomes: active, inactive

INSERT INTO assay_data (molecule, labelvalue) VALUES
  ('Cc1cscc(C)c1=S', 'inactive'),
  ('COc1ccccc1-n1c(-c2cc(O)ccc2C)cn2c3c(=O)[nH]c(=O)n(C)c3nc12', 'inactive'),
  ('O=C(Cn1nnc([N+](=O)[O-])n1)c1ccccc1', 'inactive'),
  ('Fc1ccc(COc2ccc(Nc3ncnc4sc5c(c34)CCCC5)cc2)cc1', 'inactive'),
  ('O=C(CN1CCN(c2cc3c(cc2F)c(=O)c(C(=O)O)cn3C2CC2)CC1)N/N=C/c1ccncc1', 'inactive'),
  ('CCOC(=O)Cn1c(=O)c2c3ccccc3n(C)c2n2nnc(-c3ccccc3)c12', 'inactive'),
  ('c1ccc(CNc2ccc3nc(CCC4CCCCC4)[nH]c3c2)cc1', 'inactive'),
  ('CN1CCN(c2ccc3c(c2)nc(NNC(=O)c2cnccn2)c2cccn23)CC1', 'inactive'),
  ('COc1ccc(C/C(C)=C(/c2ccc(OCCN3CCCCCC3)cc2)c2ccc(OC(=O)NCc3ccccc3)cc2)cc1', 'inactive'),
  ('C#CCn1cnc2c(Nc3cccc(NC(=O)CCl)c3)ncnc21', 'inactive'),
  ('NC(=O)c1c(NC(=O)c2ccc(Cl)cc2)sc2c1CCC(=O)C2', 'inactive'),
  ('CC(C)CN1CC(C(=O)Nc2ccc3c(c2)-c2ccccc2C3)CC1=O (stereo unspecified)', 'inactive'),
  ('N=C(N)c1ccc(-c2ccc(-c3ccc(F)cc3)s2)s1', 'active'),
  ('O=C1/C(=C/c2ccccc2[N+](=O)[O-])COc2ccc(O)cc21', 'active'),
  ('CCCCn1sc(=O)n(Cc2ccc(CNC(=O)OCc3ccc4c(Br)cc(Br)c(O)c4n3)cc2)c1=O', 'inactive'),
  ('CCOC(=O)c1c(C)c2c(n1C)CSc1cc(S(=O)(=O)c3ccccc3)c(=O)[nH]c1-2', 'inactive'),
  ('C#Cc1cccc(Oc2ccc(NC(=O)CCl)cc2)c1', 'inactive'),
  ('CC(=O)c1cc(-c2ccccc2N)n(-c2ccc3c(c2)OCO3)c1C', 'inactive'),
  ('O=C(CN1C(=O)NC2NC(=O)NC21)N/N=C/c1ccc(Cl)cc1Cl (stereo unspecified)', 'inactive'),
  ('CCOC(=O)C1=C(c2ccccc2)N=c2s/c(=C/c3ccc(Br)cc3)c(=O)n2C1c1ccc(O)cc1 (stereo unspecified)', 'inactive'),
  ('C[C@@H](CO)[C@@H]1CC[C@]2(C(=O)N3CCN(C)CC3)CC[C@]3(C)[C@H](CC[C@@H]4[C@@]5(C)CC[C@H](O)C(C)(C)[C@@H]5CC[C@]43C)[C@@H]12', 'inactive'),
  ('CN(Cc1cnc2nc(N)nc(N)c2n1)c1c(Cl)cc(C(=O)NC(CCC(=O)O)C(=O)O)cc1Cl (stereo unspecified)', 'inactive'),
  ('N=c1sc(Cc2cc(Cl)ccc2Cl)cn1CC(=O)c1ccccc1', 'inactive'),
  ('N#CC(C#N)N=Nc1ccc(Cl)cc1Cl', 'inactive'),
  ('O=C(Cn1nnc2ccccc21)Nc1ccc(-c2nc3ccccc3s2)cc1', 'inactive'),
  ('N/C(=N\c1nc2ccccc2s1)NC(=NC1CCCCC1)NC1CCCCC1', 'active'),
  ('CCOC(=O)c1c(NC(=O)CSc2n[nH]c3nc4ccccc4n23)sc(CC)c1C', 'inactive'),
  ('CC12CCC(/C(=C/NNc3ccc([N+](=O)[O-])cc3[N+](=O)[O-])C1=O)C2(C)C (stereo unspecified)', 'inactive'),
  ('c1ccc(CCc2ccccc2-c2cc(-c3ccccc3)on2)cc1', 'inactive'),
  ('C/C(=C(\c1ccc(OCCN2CCCCCC2)cc1)c1ccc(OC(=O)Cc2ccccc2)cc1)c1ccc(Cl)cc1', 'inactive'),
  ('COc1ccc(C(O)c2cc3c(N)c(C(=O)Nc4cccc(Cl)c4)sc3nc2C)cc1 (stereo unspecified)', 'active'),
  ('Cc1cc(F)ccc1S(=O)(=O)Nc1cc(-c2c(O)ccc3ccccc23)c(O)c2ccccc12', 'inactive'),
  ('COc1ccc(-c2cc(-c3ccc(OC)cc3)nc(NCCCNc3ccnc4cc(Cl)ccc34)n2)cc1', 'inactive'),
  ('O=C(Nc1cccnc1Nc1ccc(Cl)cc1)c1cn(Cc2ccc(F)cc2)nn1', 'inactive'),
  ('COc1cc(C2=NN(C(C)=O)C(c3ccc(N(C)C)cc3)C2)cc(OC)c1OC (stereo unspecified)', 'inactive'),
  ('O=C1/C(=C/c2ccc(C(F)(F)F)cc2)COc2ccc(O)cc21', 'inactive'),
  ('COc1ccc2nc3ccccc3c(NCc3ccc(F)cc3)c2c1', 'active'),
  ('COc1cc(N2C(=O)[C@H](c3ccccc3)C2c2ccc(SC)cc2)cc(OC)c1OC (stereo partly specified)', 'active'),
  ('CCCCCCCCn1ccc2cc(NC(=O)Cn3cc(CN4CCOCC4)nn3)ccc21', 'inactive'),
  ('CCN1C(=O)N(CC)C2C1NN=C1SCC(=O)N12 (stereo unspecified)', 'inactive'),
  ('COc1ccc(C(c2cc(OC)c(OC)c(OC)c2)N2CCN(Cc3ccccc3)CC2)cc1 (stereo unspecified)', 'inactive');

Data origin: PubChem BioAssay (NCI)
